Target: UniProt P14618
Assay: PKM2 Assay
Format: biochemical
Conditions: activation of PKM2; Tables 1-4
MEASURE_NAME: AC50

Here's what some known entries look like.
[
  {
    "CHEMICAL_STRUCTURE": "O=C1Oc2ccc(S(=O)(=O)Nc3ccc(F)c(Cl)c3)cc2CN1Cc1ccccc1",
    "TARGET_DESC": "UniProt P14618",
    "AC50": "> 0.5 µM"
  },
  {
    "CHEMICAL_STRUCTURE": "Cc1cc(NS(=O)(=O)c2ccc3c(c2)COC(=O)N3C)ccc1F",
    "TARGET_DESC": "UniProt P14618",
    "AC50": "0.1 to 0.5 µM"
  },
  {
    "CHEMICAL_STRUCTURE": "CN1C(=O)COc2ccc(S(=O)(=O)Nc3ccc(F)c(Cl)c3)cc21",
    "TARGET_DESC": "UniProt P14618",
    "AC50": "< 0.1 µM"
  },
  {
    "CHEMICAL_STRUCTURE": "Cc1cc(NS(=O)(=O)c2ccc3c(c2)CN(C)C(=O)O3)ccc1F",
    "TARGET_DESC": "UniProt P14618",
    "AC50": "0.1 to 0.5 µM"
  },
  {
    "CHEMICAL_STRUCTURE": "CN1CC(=O)Oc2ccc(S(=O)(=O)Nc3cccc(Cl)c3)cc21",
    "TARGET_DESC": "UniProt P14618",
    "AC50": "< 0.1 µM"
  },
  {
    "CHEMICAL_STRUCTURE": "Cc1cc(C)cc(NS(=O)(=O)c2ccc3c(c2)NC(=O)CO3)c1",
    "TARGET_DESC": "UniProt P14618",
    "AC50": "> 0.5 µM"
  }
]

Give the reported AC50 for this molecule. `Cc1cc(NS(=O)(=O)c2ccc3c(c2)N(C)C(=O)CO3)ccc1F`
< 0.1 µM

Give the reported AC50 for this molecule. `CN1CC(=O)Oc2ccc(S(=O)(=O)Nc3ccc(F)c(Cl)c3)cc21`
< 0.1 µM

====

Parameter AC50: see the listing below.
Biological target: PKM2 (Homo sapiens)
Sequence (P14618 whole entry): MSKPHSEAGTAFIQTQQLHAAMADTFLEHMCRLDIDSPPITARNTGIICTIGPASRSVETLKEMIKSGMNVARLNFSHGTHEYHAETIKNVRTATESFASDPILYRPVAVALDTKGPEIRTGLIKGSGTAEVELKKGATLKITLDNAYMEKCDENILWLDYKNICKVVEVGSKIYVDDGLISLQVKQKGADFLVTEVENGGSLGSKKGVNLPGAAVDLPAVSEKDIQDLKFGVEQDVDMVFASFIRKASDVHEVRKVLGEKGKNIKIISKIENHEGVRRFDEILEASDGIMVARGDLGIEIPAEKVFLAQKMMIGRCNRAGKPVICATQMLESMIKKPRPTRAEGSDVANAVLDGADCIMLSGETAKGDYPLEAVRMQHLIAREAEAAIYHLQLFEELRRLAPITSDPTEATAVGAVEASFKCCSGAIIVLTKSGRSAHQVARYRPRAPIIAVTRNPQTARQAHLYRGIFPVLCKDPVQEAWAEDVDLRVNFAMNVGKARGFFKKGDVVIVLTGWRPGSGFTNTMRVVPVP
Experiment: PKM2 Assay
Type: biochemical
Conditions: activation of PKM2; Tables 1-4
Description: • PKM2 stock enzyme solution was diluted in Reaction Buffer • 2 μL of compound was added into each well first, and then 180 μL of the Reaction Mix was added. • Reaction mixture with compound (without ADP) was incubated for 30 minutes at 4° C. • Plates were re-equilibrated to room temperature prior to adding 20 μL ADP to initiate the reaction. • Reaction progress was measured as changes in absorbance at 340 nm wavelength at room temperature (25° C.) Reaction Mix: […]

Here's what some known entries look like.
[
  {
    "CHEMICAL_STRUCTURE": "COc1ccc(NS(=O)(=O)c2ccc3c(c2)NC(=O)CO3)cc1",
    "MEASURE_NAME": "AC50",
    "OBSERVED_MEASUREMENT": "> 500 nM"
  },
  {
    "CHEMICAL_STRUCTURE": "CN1C(=O)OCc2ccc(S(=O)(=O)Nc3ccc(F)c(Cl)c3)cc21",
    "MEASURE_NAME": "AC50",
    "OBSERVED_MEASUREMENT": "< 100 nM"
  },
  {
    "CHEMICAL_STRUCTURE": "CN1C(=O)COc2ccc(S(=O)(=O)Nc3ccc(F)cc3)cc21",
    "MEASURE_NAME": "AC50",
    "OBSERVED_MEASUREMENT": "> 500 nM"
  },
  {
    "CHEMICAL_STRUCTURE": "O=C1COc2ccc(S(=O)(=O)Nc3ccc4c(c3)OCCO4)cc2N1",
    "MEASURE_NAME": "AC50",
    "OBSERVED_MEASUREMENT": "> 500 nM"
  },
  {
    "CHEMICAL_STRUCTURE": "CN1C(=O)OCc2cc(S(=O)(=O)Nc3ccc(F)c(Cl)c3)ccc21",
    "MEASURE_NAME": "AC50",
    "OBSERVED_MEASUREMENT": "100 to 500 nM"
  }
]

Give the reported AC50 for this compound. `CN1C(=O)COc2ccc(S(=O)(=O)Nc3cccc(Cl)c3)cc21`
< 100 nM

Give the reported AC50 for this compound. `CN1Cc2cc(S(=O)(=O)Nc3ccc(F)c(Cl)c3)ccc2OC1=O`
100 to 500 nM

Give the reported AC50 for this compound. `Cc1cc(C)cc(NS(=O)(=O)c2ccc3c(c2)N(C)C(=O)CO3)c1`
< 100 nM

Give the reported AC50 for this compound. `COc1ccc(NS(=O)(=O)c2ccc3c(c2)N(C)C(=O)CO3)cc1`
> 500 nM

Give the reported AC50 for this compound. `CN1C(=O)COc2ccc(S(=O)(=O)Nc3ccc4c(c3)OCO4)cc21`
< 100 nM

Give the reported AC50 for this compound. `Cc1cc(NS(=O)(=O)c2ccc3c(c2)N(C)CC(=O)O3)ccc1F`
< 100 nM

Give the reported AC50 for this compound. `CN1C(=O)COc2ccc(S(=O)(=O)Nc3ccc4c(c3)OCCO4)cc21`
> 500 nM

Give the reported AC50 for this compound. `O=C1COc2ccc(S(=O)(=O)Nc3ccc(F)cc3)cc2N1`
> 500 nM

Give the reported AC50 for this compound. `Cc1cc(NS(=O)(=O)c2ccc3c(c2)N(C)C(=O)OC3)ccc1F`
< 100 nM

Hey, just so you know, these numbers are from patent US10087169B2.
